# protocolDetails: Distribution coefficient (LogD) between octanol and buffer
# Type: physicochemical
readoutKind: logD
API note: the answer field is a bare number with no unit suffix.

Task item: # query: logD of entry O=C(NCCCN1CCC2(CCc3ccccc32)CC1)c1ccccc1-c1ccccc1
Reply: 3.1

Task item: Recorded logD for O=C(NCCCN1CCC2(CCc3ccccc32)CC1)[C@H]1CCCN1Cc1ccccc1 , please?
Reply: 2.7

###

Please respond with reported EC50 for every item in the list.
# targetOrSystem: Nociceptin receptor (Homo sapiens, UniProt P41146)
# Sequence (P41146 whole entry): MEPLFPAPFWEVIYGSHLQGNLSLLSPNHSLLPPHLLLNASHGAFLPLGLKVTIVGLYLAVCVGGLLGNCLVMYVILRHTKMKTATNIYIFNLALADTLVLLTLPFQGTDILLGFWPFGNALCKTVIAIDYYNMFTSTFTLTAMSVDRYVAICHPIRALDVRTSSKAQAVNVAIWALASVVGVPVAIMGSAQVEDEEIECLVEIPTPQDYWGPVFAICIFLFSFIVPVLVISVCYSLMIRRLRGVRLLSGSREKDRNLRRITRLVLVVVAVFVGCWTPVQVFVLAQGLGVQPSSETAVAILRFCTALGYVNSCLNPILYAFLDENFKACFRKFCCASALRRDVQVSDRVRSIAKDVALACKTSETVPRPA
# protocolDetails: Agonist activity on nociceptin-induced maximal [35S]GTP-gamma-S binding to ORL1 expressed in CHO cells

Task item: Find the recorded EC50 belonging to O=C(NCCCN1CCC2(CCc3ccccc32)CC1)c1ccccc1-c1ccccc1 and report it.
Reply: > 10 µM

Task item: Dear colleague, I am looking for the recorded EC50 of the following compound: O=C(NCCCN1CCC2(CCc3ccccc32)CC1)c1ccccc1OCc1ccccc1
Reply: > 10 µM

Task item: Would you mind telling me what EC50 value was observed for O=C(NCCCN1CCC2(CCc3ccccc32)CC1)[C@@H](O)Cc1ccccc1 ?
Reply: > 10 µM

Task item: Find the recorded EC50 belonging to O=C(NCCCN1CCC2(CCc3ccccc32)CC1)[C@@H]1CCCN1Cc1ccccc1 and report it.
Reply: > 10 µM

Task item: Entry under review: O=C(NCCCN1CCC2(CCc3ccccc32)CC1)[C@H]1CCCN1Cc1ccccc1 . Reported EC50?
Reply: > 1 µM

Task item: Bench note: what EC50 did O=C(NCCCN1CCC2(CC1)OCc1ccccc12)[C@H]1CCCN1Cc1ccccc1 show?
Reply: > 1 µM

Task item: Given the entry O=C(NCCCN1CCC2(CCc3ccccc32)CC1)c1ccccc1Oc1ccccc1 , report its measured EC50.
Reply: > 10 µM
